# target_or_test_system: 14-3-3ε protein (Homo sapiens, UniProt P62258)
# Sequence (P62258 whole entry): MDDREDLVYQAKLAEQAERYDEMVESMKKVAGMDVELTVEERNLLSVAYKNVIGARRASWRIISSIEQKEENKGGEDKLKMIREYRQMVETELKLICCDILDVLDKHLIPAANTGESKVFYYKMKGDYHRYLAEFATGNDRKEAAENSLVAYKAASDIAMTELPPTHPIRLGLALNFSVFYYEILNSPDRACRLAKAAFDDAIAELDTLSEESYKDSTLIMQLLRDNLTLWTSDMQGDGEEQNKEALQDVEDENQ
Peptide text beside a SMILES is read from it.
Kd reference
Lab book: enter the figure in µM, no units written.

Observe how each entry below is paired with its result.
compound	measured_endpoint	value_observed
CSCC[C@H](NC(=O)[C@H](CCCNC(=N)N)NC(=O)[C@@H]1CCCN1C(=O)[C@H](C)NC(=O)[C@H](COP(=O)(O)O)NC(=O)[C@H](CC(N)=O)NC(=O)[C@H](CCC(N)=O)NC(=O)[C@H](CCCNC(=N)N)NC(=O)[C@H](CCC(N)=O)NC(=O)[C@@H](NC(C)=O)[C@@H](C)O)C(=O)N[C@@H](CC(C)C)C(=O)N[C@@H](CO)C(=O)N[C@@H](CO)C(=O)N[C@@H](CC(N)=O)C(N)=O [pS] (HELM PEPTIDE1{[ac].T.Q.R.Q.N.[O=C([C@H](COP(=O)(O)O)N[*:1])[*:2]].A.P.R.M.L.S.S.N.[am]}$$$$V2.0)	Kd	11.2
CC(=O)N[C@@H](CCC(N)=O)C(=O)N[C@@H](CCCNC(=N)N)C(=O)N[C@@H](Cc1ccccc1)C(=O)N[C@@H](CC(N)=O)C(=O)N[C@@H](COP(=O)(O)O)C(=O)N[C@@H](C)C(=O)N1CCC[C@H]1C(=O)N[C@@H](C)C(=O)N[C@@H](CCCNC(=N)N)C(N)=O (HELM PEPTIDE1{[ac].Q.R.F.N.[O=C([C@H](COP(=O)(O)O)N[*:1])[*:2]].A.P.A.R.[am]}$$$$V2.0)	Kd	8.29
CC(=O)N[C@@H](CCCNC(=N)N)C(=O)N[C@H](C(=O)N[C@@H](CCCCN)C(=O)N[C@@H](CO)C(=O)N[C@@H](CCCNC(=N)N)C(=O)N[C@H](C(=O)N[C@@H](Cc1ccc(O)cc1)C(=O)N[C@@H](C)C(=O)NCC(N)=O)[C@@H](C)OP(=O)(O)O)[C@@H](C)O (HELM PEPTIDE1{[ac].R.T.K.S.R.[C[C@@H](OP(=O)(O)O)[C@H](N[*:1])C(=O)[*:2]].Y.A.G.[am]}$$$$V2.0)	Kd	2.34

Kindly review the next compound as well.
Prompt: Kd of CC(=O)N[C@@H](CCC(N)=O)C(=O)N[C@@H](CCCNC(=N)N)C(=O)N[C@@H](Cc1ccc(O)cc1)C(=O)N[C@@H](CC(N)=O)C(=O)N[C@@H](COP(=O)(O)O)C(=O)N[C@@H](C)C(=O)N1CCC[C@H]1C(=O)N[C@@H](C)C(=O)N[C@@H](CCCNC(=N)N)C(N)=O (HELM PEPTIDE1{[ac].Q.R.Y.N.[O=C([C@H](COP(=O)(O)O)N[*:1])[*:2]].A.P.A.R.[am]}$$$$V2.0) on 14-3-3ε protein (Homo sapiens, UniProt P62258)?
Completion: 9.34
